# study-system: huPD-L1 (Homo sapiens, UniProt Q9NZQ7)
# Sequence (Q9NZQ7 19-290): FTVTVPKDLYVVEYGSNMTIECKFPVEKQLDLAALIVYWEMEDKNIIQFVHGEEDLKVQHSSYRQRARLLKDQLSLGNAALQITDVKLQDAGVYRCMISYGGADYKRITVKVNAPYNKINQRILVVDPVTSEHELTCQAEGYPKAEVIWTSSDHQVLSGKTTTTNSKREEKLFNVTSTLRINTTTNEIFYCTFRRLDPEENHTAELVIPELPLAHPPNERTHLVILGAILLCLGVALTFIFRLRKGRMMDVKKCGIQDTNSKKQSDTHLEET
# run-description: Flow binding to CHO cells stably expressing PD-L1
# Design: huCTLA4 and huPD-L1, full-length mammalian surface expression constructs were generated; expressed in transfected cells; host or cells: CHO cells, lentiviral transduction, sorted to >98% purity
# condition-context: Table E19; CHO cells stably expressing PD-L1; 33.3 nM
Label scheme for PD-L1 MFI at 33.3 nM: lower than 6000 is f, 6000 and above is t.

// below: answered molecules
molecule | cat
V68M/L85Q (protein) VIHVTKEVKEVATLSCGHNVSVEELAQTRIYWQKEKKMVLTMMSGDMNIWPEYKNRTIFDITNNLSIMILALRPSDEGTYECVVQKYEKDAFKREHLAEVTLSVKAD | f
M47L (protein) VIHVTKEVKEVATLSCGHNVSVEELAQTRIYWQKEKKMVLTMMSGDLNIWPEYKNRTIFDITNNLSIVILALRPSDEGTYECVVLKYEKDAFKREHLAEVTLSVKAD | f

Input: Decide: is the reported value of PD-L1 MFI at 33.3 nM for E35D/D46V/V68M (protein) VIHVTKEVKEVATLSCGHNVSVEELAQTRIYWQKDKKMVLTMMSGVMNIWPEYKNRTIFDITNNLSIMILALRPSDEGTYECVVLKYEKDAFKREHLAEVTLSVKAD equal to or greater than 6000?
Output: t

Input: Decide: is the reported value of PD-L1 MFI at 33.3 nM for E35D/M47V/N48K/K89N (protein) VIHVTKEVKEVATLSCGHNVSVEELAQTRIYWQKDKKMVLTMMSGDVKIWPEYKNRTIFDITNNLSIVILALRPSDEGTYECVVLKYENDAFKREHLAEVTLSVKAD equal to or greater than 6000?
Output: t
